Data origin, for the record: patent US9586931B2

- tested system: recombinant human GST-Syk (Homo sapiens, UniProt P43405)
- Construct: purchased Carna Biosciences 08-176
- method notes: Homogeneous Time-Resolved Fluorescence (HTRF) assay for the recombinant human Syk enzyme
- Type: biochemical
- test conditions: recombinant human GST-Syk 5 pM, ATP 25 μM, 10-dose titration 10 μM to 0.508 nM; read-out: rhSYK Activity IC50
Each entry below carries its recorded log10 of IC50.
metric: log10 of IC50 (log10 of the value in nM)

- molecule: "Cc1cc(Nc2nccc(C3CC3)n2)cc(-c2cn(CC(C)(O)C(C)(C)O)nn2)c1 (centres unmarked) [Example 21.14]"
  metric: "log10 of IC50"
  reported value: 0.87
- molecule: "Cc1cc(Nc2cc(OCCO)ccn2)nc(-c2cn(C(C)c3ccc(C(=O)O)cc3)nn2)c1 (centres unmarked) [Example 2.4]"
  metric: "log10 of IC50"
  reported value: 1.45
- molecule: "Cc1cc(Nc2cc(C(F)(F)F)ccn2)nc(-c2cn(C(C)C(=O)N3CCN(Cc4ccccc4)C(c4ccccc4)C3)nn2)c1 (centres unmarked) [Example 1.50]"
  metric: "log10 of IC50"
  reported value: 2.76
- molecule: "Cc1cc(Nc2cc(C(F)(F)F)ccn2)nc(-c2cn(C(C)C(=O)NCCc3cn(C)c4ccccc34)nn2)c1 (centres unmarked) [Example 1.51]"
  metric: "log10 of IC50"
  reported value: 2.27
- molecule: "C=C(C)Cn1cc(-c2cc(C)cc(Nc3cc(C(F)(F)F)ccn3)n2)nn1 [Example 5.40]"
  metric: "log10 of IC50"
  reported value: 1.46
